System: HeLa
Experiment: Primary qHTS to identify gynecologic anti-cancer compounds using libraries of approved drugs and bioactive compounds (AID 1345084); note: nearly all actives have a fitted effect of over 55% in size; note: potency is the fitted concentration of half-maximal effect
Conditions: Gynecologic cancer cell panel viability, ATPlite luminescence, 48 h; series mostly up to 57.5 µM
Results filed as inconclusive are left out. Active and inactive are the calls of the source. Calls come from the whole dose curve; as a rule, active = well fitted cell-killing curve with a large enough effect; inconclusive = small, poorly fitted or top-dose-only effect, or effect the other way; inactive = flat fitted curve, though single readings scatter.
metric: Potency

• C=C1C(=O)O[C@@H]2[C@H]1CCC(C)=C1CCC(=O)O[C@]12C = inactive
• CC1=CCC2C(C)(C)CCC[C@]2(C)[C@@]12CC[C@](C)(CC(=O)O)O2 (some centres undefined) = inactive
• CC1=C(C)C(=O)OC(C(C)C2CCC3C4CC=C5CC(OC6OC(COC7OC(CO)C(O)C(O)C7O)C(O)C(O)C6O)CC(O)C5(C)C4CCC23C)C1 (centres undefined) = inactive
• O=C(O)/C=C/c1ccc(-c2ccc(O)c(C34CC5CC(CC(C5)C3)C4)c2)cc1 = 8.91 µM (active)
• C/C=C/C1=CC2=C(CO1)C(=O)C(C)(O)C(OC(=O)c1c(C)cc(OC)cc1O)C2 (centres undefined) = inactive

Q) Reported Potency, molecule C[C@@H]1CC[C@]2(C(=O)O[C@@H]3O[C@H](CO)[C@@H](O)[C@H](O)[C@H]3O)CC[C@]3(C)C(=CCC4[C@@]5(C)C[C@@H](O)[C@H](O)[C@](C)(C(=O)O)C5CC[C@]43C)[C@@H]2[C@]1(C)O (some centres undefined) : ____
A) inactive

Q) Quick one: Potency for CCCCNc1ncc2c(-c3ccc(F)cc3)nn(CC3CCC(N)CC3)c2n1 (centres undefined) ?
A) 10 µM (active)

Q) Given COc1cc(C2Oc3c(OC)cc(CCCO)cc3C2CO)ccc1O[C@H]1O[C@H](C)[C@@H](O)[C@H](O)[C@@H]1O (some centres undefined) , state its recorded Potency.
A) inactive

Q) Requested read-out: Potency. Entry: C=CC1(C)C=C2C(=O)OC(=O)C3=C(CCCC3(C)C)C2(O)CC1 (centres undefined)
A) inactive

Q) # get_value(readout='Potency', item= CC1(C)CCCC2(C)C1CC=C1C(=O)OC(O)C12O (centres undefined) )
A) inactive

Q) Quick one: Potency for COC(=O)c1ccc(OC(CO)C(O)c2ccc(O)c(OC)c2)c(OC)c1 (centres undefined) ?
A) inactive

Q) Look up Potency: COc1cc2nc(N3CCCC3)nc(NCCCCCN3CCCC3)c2cc1OC
A) 25.1 µM (active)

Q) Returns the measured Potency for the input molecule. Input: CC(C)CC1NC(=O)C(C)NC(=O)C(CC(C)C)OC(=O)CCCNC1=O (centres undefined)
A) inactive

Q) Potency lookup needed for CCN(Cc1cccnc1)C(=O)CN(c1ccc(OC)nc1)S(=O)(=O)c1ccccc1C , thanks.
A) inactive

Q) Request the reported Potency associated with COC(=O)C1=COC(OC2OC(CO)C(O)C(O)C2O)C2C1C=CC2(O)CO (centres undefined)
A) inactive

Q) GET /values?readout=Potency&item= C=C[C@H]1[C@H](O[C@@H]2O[C@H](CO)[C@@H](O)[C@H](O)[C@H]2O)OC=C(C(=O)OC)[C@H]1CCOC(=O)c1cc(O)c(O)c(O)c1
A) inactive

Q) Fill in: Potency of O=C(O)c1ccccc1NC(=O)N1CCC(c2ccccc2C(F)(F)F)CC1 is ___
A) inactive

Q) Fill in the blank: the reported Potency of CN(C)C1CCN(C(=O)c2ccc(NC(=O)Nc3ccc(-c4nc(N5CCOCC5)nc(N5CCOCC5)n4)cc3)cc2)CC1 is ____.
A) 0.562 µM (active)

Q) I am curious: what Potency value has been reported for FC(F)(F)c1ccc(Nc2nc(-c3c(C(F)(F)F)nc4ccccn34)cs2)cc1 ?
A) 0.891 µM (active)

Q) Request the reported Potency associated with C[C@@H](O)[C@H](NC(=O)c1ccc(C#Cc2ccc(CN3CCOCC3)cc2)cc1)C(=O)NO
A) inactive

Q) Bench note: what Potency did CC[C@@H](O)C[C@@H]1C(C)=C[C@@H]2CCCC[C@@H]2[C@@]1(C)C(=O)O show?
A) inactive

Source: PubChem BioAssay (NCATS)
